- assay.system: Amine oxidase [flavin-containing] A (Homo sapiens, UniProt P21397)
- Sequence (P21397 whole entry): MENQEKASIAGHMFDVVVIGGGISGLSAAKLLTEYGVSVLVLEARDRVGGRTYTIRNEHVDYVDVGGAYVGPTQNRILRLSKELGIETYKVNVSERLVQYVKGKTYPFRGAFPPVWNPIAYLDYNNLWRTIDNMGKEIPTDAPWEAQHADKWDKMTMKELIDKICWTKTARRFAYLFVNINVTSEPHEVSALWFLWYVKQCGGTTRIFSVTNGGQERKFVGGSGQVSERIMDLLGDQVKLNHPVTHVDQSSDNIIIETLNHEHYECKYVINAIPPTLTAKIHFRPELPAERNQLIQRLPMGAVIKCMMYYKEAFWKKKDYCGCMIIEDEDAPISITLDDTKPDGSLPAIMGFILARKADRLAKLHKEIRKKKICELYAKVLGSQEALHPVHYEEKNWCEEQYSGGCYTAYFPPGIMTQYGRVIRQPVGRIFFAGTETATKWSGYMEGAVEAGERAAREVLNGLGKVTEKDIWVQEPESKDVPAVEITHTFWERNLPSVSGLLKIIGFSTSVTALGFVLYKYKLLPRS
- test.method.notes: Inhibition of recombinant human MAO-A using kynuramine as substrate after 30 mins by fluorescence assay
Could you please report measured pIC50 for the items listed next?
By convention, pIC50 is the negative base-10 log of a molar concentration.

(Q) Give pIC50; test system Amine oxidase [flavin-containing] A (Homo sapiens, UniProt P21397); molecule COc1ccccc1CN(C)CCCn1sc2cc(OC)c(OC)cc2c1=O
(A) 5.03

(Q) Give pIC50; test system Amine oxidase [flavin-containing] A (Homo sapiens, UniProt P21397); molecule COc1cc2sn(CCCCCCN(C)Cc3ccccc3)c(=O)c2cc1OC
(A) 4.64

(Q) Give pIC50; test system Amine oxidase [flavin-containing] A (Homo sapiens, UniProt P21397); molecule CCN(CCCCCCn1sc2cc(OC)c(OC)cc2c1=O)Cc1ccccc1OC
(A) 5.10

(Q) Give pIC50; test system Amine oxidase [flavin-containing] A (Homo sapiens, UniProt P21397); molecule CCN(CCCn1sc2cc(OC)c(OC)cc2c1=O)Cc1ccc(N(C)C)cc1
(A) 4.95

(Q) Give pIC50; test system Amine oxidase [flavin-containing] A (Homo sapiens, UniProt P21397); molecule CCN(CCCn1sc2cc(OC)c(OC)cc2c1=O)Cc1ccccc1OC
(A) 4.81

(Q) Give pIC50; test system Amine oxidase [flavin-containing] A (Homo sapiens, UniProt P21397); molecule COc1ccccc1CN(C)CCCCn1sc2cc(OC)c(OC)cc2c1=O
(A) 5.15

(Q) Give pIC50; test system Amine oxidase [flavin-containing] A (Homo sapiens, UniProt P21397); molecule CCN(CCCCCCn1sc2cc(OC)c(OC)cc2c1=O)Cc1ccccc1N(C)C
(A) 5.47

(Q) Give pIC50; test system Amine oxidase [flavin-containing] A (Homo sapiens, UniProt P21397); molecule CCN(CCCn1sc2cc(OC)c(OC)cc2c1=O)Cc1ccccc1N(C)C
(A) 4.78

----------
- Species on record: Rattus norvegicus
- test.method.notes: Inhibition of rat serum BuChE using butyrylthiocholine iodide as substrate measured at 50 uM after 15 mins by Ellman's method relative to control
parameter.measured: inhibition (%)
Return type: number; implicit unit %.

(Q) Using the record for CCN(CCCn1sc2cc(OC)c(OC)cc2c1=O)Cc1ccccc1OC , state its measured inhibition.
(A) 18.9

(Q) Using the record for COc1cc2sn(CCCN(C)Cc3ccccc3)c(=O)c2cc1OC , state its measured inhibition.
(A) 11.5

(Q) Using the record for CCN(CCCCCCn1sc2cc(OC)c(OC)cc2c1=O)Cc1ccccc1OC , state its measured inhibition.
(A) 46.9

(Q) Using the record for COc1cc2sn(CCCCN(C)Cc3ccccc3)c(=O)c2cc1OC , state its measured inhibition.
(A) 14.7

(Q) Using the record for CCN(CCCn1sc2cc(OC)c(OC)cc2c1=O)Cc1ccccc1 , state its measured inhibition.
(A) 12.3

(Q) Using the record for CCN(CCCCn1sc2cc(OC)c(OC)cc2c1=O)Cc1ccc(N(C)C)cc1 , state its measured inhibition.
(A) 23.2

(Q) Using the record for CCN(CCCCn1sc2cc(OC)c(OC)cc2c1=O)Cc1ccccc1OC , state its measured inhibition.
(A) 36.4

(Q) Using the record for COc1ccccc1CN(C)CCCn1sc2cc(OC)c(OC)cc2c1=O , state its measured inhibition.
(A) 10.8

(Q) Using the record for COc1cc2sn(CCCCCCN(C)Cc3ccccc3)c(=O)c2cc1OC , state its measured inhibition.
(A) 23.1

(Q) Using the record for COc1ccccc1CN(C)CCCCCCn1c(=O)c2cc(OC)c(OC)cc2[s+]1[O-] (configuration not stated) , state its measured inhibition.
(A) 28.7

(Q) Using the record for CCN(CCCCCCN1C(=O)c2cc(OC)c(OC)cc2S1(=O)=O)Cc1ccccc1 , state its measured inhibition.
(A) 35.7

(Q) Using the record for CCN(CCCCCCn1sc2cc(OC)c(OC)cc2c1=O)Cc1ccc(N(C)C)cc1 , state its measured inhibition.
(A) 22.7
